These entries and their values trace back to patent US12440492B2.

METHOD: Bulk density, tapped density and Carr index
Format: physicochemical
EXPERIMENTAL SETUP: spray-dried amorphous ipatasertib monohydrochloride, rotary wheel atomizer; monohydrochloride
Counter-ions that a name gives are not always drawn.
VALUE TYPE: Tapped density

CC(C)NC[C@@H](C(=O)N1CCN(c2ncnc3c2[C@H](C)C[C@H]3O)CC1)c1ccc(Cl)cc1 [BS1506SA06, ipatasertib monohydrochloride] | 0.56 gcm^−3
CC(C)NC[C@@H](C(=O)N1CCN(c2ncnc3c2[C@H](C)C[C@H]3O)CC1)c1ccc(Cl)cc1 [BS1506SA02, ipatasertib monohydrochloride] | 0.52 gcm^−3
CC(C)NC[C@@H](C(=O)N1CCN(c2ncnc3c2[C@H](C)C[C@H]3O)CC1)c1ccc(Cl)cc1 [BS1506SA05, ipatasertib monohydrochloride] | 0.57 gcm^−3
CC(C)NC[C@@H](C(=O)N1CCN(c2ncnc3c2[C@H](C)C[C@H]3O)CC1)c1ccc(Cl)cc1 [BS1506SA03, ipatasertib monohydrochloride] | 0.55 gcm^−3
CC(C)NC[C@@H](C(=O)N1CCN(c2ncnc3c2[C@H](C)C[C@H]3O)CC1)c1ccc(Cl)cc1 [BS1506SA07, ipatasertib monohydrochloride] | 0.56 gcm^−3

* * *

METHOD: Shear cell testing with Ring Shear Tester RST-XS
Type: physicochemical
EXPERIMENTAL SETUP: Pre-shear stress 1000 PA, 30 mL shear cell; monohydrochloride
Where a name gives a salt, the structure may show the parent alone.
# key: entry, value: Consolidation stress (σ1)
VALUE TYPE: Consolidation stress (σ1) (PA)

CC(C)NC[C@@H](C(=O)N1CCN(c2ncnc3c2[C@H](C)C[C@H]3O)CC1)c1ccc(Cl)cc1 [Composition 140910416, ipatasertib monohydrochloride] | 1731
CC(C)NC[C@@H](C(=O)N1CCN(c2ncnc3c2[C@H](C)C[C@H]3O)CC1)c1ccc(Cl)cc1 [Composition 140910415, ipatasertib monohydrochloride] | 1710
CC(C)NC[C@@H](C(=O)N1CCN(c2ncnc3c2[C@H](C)C[C@H]3O)CC1)c1ccc(Cl)cc1 [BS1506SA05, ipatasertib monohydrochloride] | 1668
CC(C)NC[C@@H](C(=O)N1CCN(c2ncnc3c2[C@H](C)C[C@H]3O)CC1)c1ccc(Cl)cc1 [BS1506SA03, ipatasertib monohydrochloride] | 1709
CC(C)NC[C@@H](C(=O)N1CCN(c2ncnc3c2[C@H](C)C[C@H]3O)CC1)c1ccc(Cl)cc1 [BS1506SA07, ipatasertib monohydrochloride] | 1705
CC(C)NC[C@@H](C(=O)N1CCN(c2ncnc3c2[C@H](C)C[C@H]3O)CC1)c1ccc(Cl)cc1 [BS1506SA02, ipatasertib monohydrochloride] | 1701
CC(C)NC[C@@H](C(=O)N1CCN(c2ncnc3c2[C@H](C)C[C@H]3O)CC1)c1ccc(Cl)cc1 [BS1506SA08, ipatasertib monohydrochloride] | 1686
CC(C)NC[C@@H](C(=O)N1CCN(c2ncnc3c2[C@H](C)C[C@H]3O)CC1)c1ccc(Cl)cc1 [Composition 140910419, ipatasertib monohydrochloride] | 1729
CC(C)NC[C@@H](C(=O)N1CCN(c2ncnc3c2[C@H](C)C[C@H]3O)CC1)c1ccc(Cl)cc1 [Composition 140910420, ipatasertib monohydrochloride] | 1733

* * *

# key: entry, value: Particle size d10
METHOD: Particle size distribution (d10, d50, d90) by laser diffraction
Type: physicochemical
EXPERIMENTAL SETUP: spray dried amorphous ipatasertib monohydrochloride powder
Structures can show the parent of a compound that is named as a salt.
VALUE TYPE: Particle size d10 (μm)

CC(C)NC[C@@H](C(=O)N1CCN(c2ncnc3c2[C@H](C)C[C@H]3O)CC1)c1ccc(Cl)cc1 [Composition 130810454, ipatasertib monohydrochloride] | 12
CC(C)NC[C@@H](C(=O)N1CCN(c2ncnc3c2[C@H](C)C[C@H]3O)CC1)c1ccc(Cl)cc1 [Composition 140910420, ipatasertib monohydrochloride] | 9.7
CC(C)NC[C@@H](C(=O)N1CCN(c2ncnc3c2[C@H](C)C[C@H]3O)CC1)c1ccc(Cl)cc1 [6A′, ipatasertib monohydrochloride] | 0.7
CC(C)NC[C@@H](C(=O)N1CCN(c2ncnc3c2[C@H](C)C[C@H]3O)CC1)c1ccc(Cl)cc1 [Composition 140110405, ipatasertib monohydrochloride] | 9.3
CC(C)NC[C@@H](C(=O)N1CCN(c2ncnc3c2[C@H](C)C[C@H]3O)CC1)c1ccc(Cl)cc1 [Composition 140110411, ipatasertib monohydrochloride] | 9.2
CC(C)NC[C@@H](C(=O)N1CCN(c2ncnc3c2[C@H](C)C[C@H]3O)CC1)c1ccc(Cl)cc1 [Composition 141210422, ipatasertib monohydrochloride] | 9.6
CC(C)NC[C@@H](C(=O)N1CCN(c2ncnc3c2[C@H](C)C[C@H]3O)CC1)c1ccc(Cl)cc1 [Composition 140910415, ipatasertib monohydrochloride] | 11
CC(C)NC[C@@H](C(=O)N1CCN(c2ncnc3c2[C@H](C)C[C@H]3O)CC1)c1ccc(Cl)cc1 [Composition 140110401, ipatasertib monohydrochloride] | 11.4
CC(C)NC[C@@H](C(=O)N1CCN(c2ncnc3c2[C@H](C)C[C@H]3O)CC1)c1ccc(Cl)cc1 [6B′, ipatasertib monohydrochloride] | 0.7
CC(C)NC[C@@H](C(=O)N1CCN(c2ncnc3c2[C@H](C)C[C@H]3O)CC1)c1ccc(Cl)cc1 [Composition 140110407, ipatasertib monohydrochloride] | 7.1
CC(C)NC[C@@H](C(=O)N1CCN(c2ncnc3c2[C@H](C)C[C@H]3O)CC1)c1ccc(Cl)cc1 [Composition 140910417, ipatasertib monohydrochloride] | 11
CC(C)NC[C@@H](C(=O)N1CCN(c2ncnc3c2[C@H](C)C[C@H]3O)CC1)c1ccc(Cl)cc1 [Composition 140110403, ipatasertib monohydrochloride] | 9.4
CC(C)NC[C@@H](C(=O)N1CCN(c2ncnc3c2[C@H](C)C[C@H]3O)CC1)c1ccc(Cl)cc1 [Composition 140910416, ipatasertib monohydrochloride] | 10
CC(C)NC[C@@H](C(=O)N1CCN(c2ncnc3c2[C@H](C)C[C@H]3O)CC1)c1ccc(Cl)cc1 [Composition 130710452, ipatasertib monohydrochloride] | 8.4
CC(C)NC[C@@H](C(=O)N1CCN(c2ncnc3c2[C@H](C)C[C@H]3O)CC1)c1ccc(Cl)cc1 [Composition 130710450, ipatasertib monohydrochloride] | 14
CC(C)NC[C@@H](C(=O)N1CCN(c2ncnc3c2[C@H](C)C[C@H]3O)CC1)c1ccc(Cl)cc1 [Composition 140110410, ipatasertib monohydrochloride] | 8.1
